subject of test: Amyloid-beta(1-40) binding to purified human brain membranes (Homo sapiens, UniProt P05067)
Sequence (P05067 672-711): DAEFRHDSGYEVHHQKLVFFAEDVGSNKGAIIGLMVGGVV
Structures can show the parent of a compound that is named as a salt.
// reported IC50 for each item listed
All answers are understood in µM, so give the number only.

[[record]]
compound = "C/C(=N\\Nc1ncnc2cc(Cl)ccc12)c1ccc(-n2cc(C)nc2C)nc1 [Compound 18]"
experimental_readout = "IC50"
endpoint_result = 17.3

[[record]]
compound = "Cc1ncn(-c2ccc(Nc3ncnc4cc(Cl)ccc34)cn2)c1C [Compound 25]"
experimental_readout = "IC50"
endpoint_result = 4.68

[[record]]
compound = "Clc1ccc2c(N/N=C/c3ccc(-n4ccnc4)nc3)ccnc2c1 [Compound 14, hydrochloride]"
experimental_readout = "IC50"
endpoint_result = 18.4

[[record]]
compound = "CCN(CC)Cc1cccc(Nc2ccnc3cc(Cl)ccc23)c1 [Compound 42]"
experimental_readout = "IC50"
endpoint_result = 6.56

[[record]]
compound = "Clc1ccc2c(N/N=C/c3ccc(-n4ccnc4)cc3)ccnc2c1 [Compound 38, dihydrochloride]"
experimental_readout = "IC50"
endpoint_result = 0.36

[[record]]
compound = "C/C(=N\\Nc1ncnc2cc(F)ccc12)c1ccc(-n2cc[n+](C)c2)nc1 [Compound 26]"
experimental_readout = "IC50"
endpoint_result = 1.51

[[record]]
compound = "C/C(=N\\Nc1ncnc2ccccc12)c1ccc(-n2cc(C)nc2C)nc1 [Compound 19]"
experimental_readout = "IC50"
endpoint_result = 3.09

[[record]]
compound = "Fc1cc(/C=N/Nc2ccnc3cc(Cl)ccc23)ccc1-n1ccnc1 [Compound 35, hydrochloride]"
experimental_readout = "IC50"
endpoint_result = 41.5


Turning now to a further compound:
Looking up Clc1ccc2c(Nc3ccc(-n4ccnc4)nc3)ncnc2c1 [Compound 41] , I see its IC50 listed as 18.7

* * *

subject of test: Alpha-Synuclein Protofibril binding to purified human brain membranes (Homo sapiens)
procedure details: Inhibition of protofibrillar alpha-synuclein binding to purified human brain cell membranes (ELISA)
run parameters: alpha-synuclein protofibrils, read-out: Alpha-Synuclein/Membrane Activity (IC-50)
Procedure: Purified human brain cell membranes were prepared by differential centrifugation as follows. […] Protein concentration was measured with BCA protein assay kit (Pierce Cat. No. 23227). […] Bound GBAP was detected by a monoclonal antibody specific for that GBAP, followed by incubation with secondary antibody conjugated to horseradish peroxidase (HRP). […] The Optical Density of the samples was measured at 450 nm using an ELISA plate reader (BioTek Synergy H1). […] IC-50s were calculated using GraphPad Prism software. […]
Structures can show the parent of a compound that is named as a salt.
experimental readout: IC50 (µM)
All answers are understood in µM, so give the number only.

Example results:
[[record]]
compound = "CC(=NNc1ncnc2cc(Cl)ccc12)c1ccnc(-n2cnc(C)c2C)c1 [Compound 28]"
endpoint_result = 3.17

[[record]]
compound = "C/C(=N\\Nc1ncnc2cc(Cl)ccc12)c1ccc(-n2cc(C)nc2C)nc1 [Compound 27, hydrochloride]"
endpoint_result = 7.31


Looking up C/C(=N\Nc1ncnc2cc(Cl)ccc12)c1ccc(-n2cc(C)nc2C)nc1 [Compound 18] , I see its IC50 listed as 3.73

Looking up Clc1ccc2c(Nc3ccc(-n4ccnc4)nc3)ncnc2c1 [Compound 41] , I see its IC50 listed as 5.8

* * *

subject of test: Tau binding to purified human brain membranes (Homo sapiens)
Sequence (P10636 with tags, fused parts or gaps): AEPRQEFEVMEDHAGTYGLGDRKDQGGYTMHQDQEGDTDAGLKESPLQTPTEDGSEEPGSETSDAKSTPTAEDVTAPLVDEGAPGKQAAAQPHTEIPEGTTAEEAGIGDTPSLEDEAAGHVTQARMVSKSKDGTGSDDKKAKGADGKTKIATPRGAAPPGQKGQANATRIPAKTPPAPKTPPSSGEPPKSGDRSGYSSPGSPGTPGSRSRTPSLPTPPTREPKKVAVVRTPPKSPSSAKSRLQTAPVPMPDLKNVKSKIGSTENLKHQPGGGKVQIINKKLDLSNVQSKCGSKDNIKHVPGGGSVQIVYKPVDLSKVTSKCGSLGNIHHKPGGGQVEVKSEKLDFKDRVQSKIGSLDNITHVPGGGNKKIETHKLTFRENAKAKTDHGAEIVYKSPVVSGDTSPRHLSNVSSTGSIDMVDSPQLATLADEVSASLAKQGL
procedure details: Inhibition of Tau binding to purified human brain cell membranes (ELISA)
Where a name gives a salt, the structure may show the parent alone.
experimental readout: IC50 (µM)
All answers are understood in µM, so give the number only.

Example results:
[[record]]
compound = "Cc1ncn(-c2ncc(Nc3ncnc4cc(Cl)ccc34)cc2O)c1C"
experimental_readout = "IC50"
endpoint_result = 65.1

[[record]]
compound = "Cc1ncn(-c2ccc(/C=N/Nc3ccnc4cc(Cl)ccc34)cc2)c1C"
experimental_readout = "IC50"
endpoint_result = 11.4


Looking up Clc1ccc2c(N/N=C/c3ccc(-n4ccnc4)cc3)ccnc2c1 [Compound 38, dihydrochloride] , I see its IC50 listed as 4.86

* * *

// reported pIC50 for each item listed
subject of test: Alpha-Synuclein Protofibril binding to heparin (HS-GAG) (Homo sapiens, UniProt P37840)
procedure details: Inhibition of alpha-synuclein protofibril binding to immobilized heparin-BSA (ELISA)
Parameters: species or system porcine
run parameters: Alpha-Synuclein/Heparin Activity (IC-50), alpha-synuclein protofibrils, heparin-BSA
Counter-ions that a name gives are not always drawn.
# pIC50 is unitless: minus log10 of the molar concentration; print number only

Looking up Clc1ccc2c(N/N=C/c3ccc(-n4ccnc4)nc3)ccnc2c1 [Compound 14, hydrochloride] , I see its pIC50 listed as 5.69

Looking up CC(=NNc1ccnc2cc(Cl)ccc12)c1ccc(-n2cnc(C)c2C)nc1 , I see its pIC50 listed as 5.54

Looking up CCN1CCN(c2ccc(Nc3ccnc4cc5ccccc5cc34)cc2)CC1 , I see its pIC50 listed as 5.47

* * *

subject of test: Alpha-Synuclein Protofibril binding to purified human brain membranes (Homo sapiens, UniProt P37840)
procedure details: Inhibition of protofibrillar alpha-synuclein binding to purified human brain cell membranes (ELISA)
run parameters: Alpha-Synuclein/Membrane Activity (IC-50), alpha-synuclein protofibrils
experimental readout: pIC50
# pIC50 is unitless: minus log10 of the molar concentration; print number only

Example results:
[[record]]
smiles_input = "Clc1ccc2c(N/N=C/c3ccc(-n4cccn4)cc3)ccnc2c1"
endpoint_result = 5.13

[[record]]
smiles_input = "C[N+](C)(C)Cc1ccc(/C=N\\Nc2ccnc3ccc(Cl)cc23)cc1"
endpoint_result = 4.97


Turning now to a further compound:
Looking up CC(=NNc1ccnc2cc(Cl)ccc12)c1ccc(-n2cnc(C)c2C)nc1 , I see its pIC50 listed as 4.97

* * *

subject of test: Amyloid-beta(1-40) binding to purified human brain membranes (Homo sapiens, UniProt P05067)
experimental readout: IC50 (µM)
All answers are understood in µM, so give the number only.

Example results:
[[record]]
compound = "CC(=NNc1ncnc2cc(Cl)ccc12)c1ccnc(-n2cnc(C)c2C)c1 [Compound 28]"
experimental_readout = "IC50"
unit_spec = "µM"
endpoint_result = 3.71

[[record]]
compound = "CCN1CCN(c2ccc(Nc3ccnc4cc5ccccc5cc34)cc2)CC1 [Compound 39]"
experimental_readout = "IC50"
unit_spec = "µM"
endpoint_result = 1.46


Turning now to a further compound:
Looking up C/C(=N\Nc1ncnc2cc(F)ccc12)c1ccc(-n2cnc(C)c2C)nc1 [Compound 21] , I see its IC50 listed as 5.95
